Target: T1, human CD166 protein (human) (UniProt Q13740)
T1 sequence (looked up): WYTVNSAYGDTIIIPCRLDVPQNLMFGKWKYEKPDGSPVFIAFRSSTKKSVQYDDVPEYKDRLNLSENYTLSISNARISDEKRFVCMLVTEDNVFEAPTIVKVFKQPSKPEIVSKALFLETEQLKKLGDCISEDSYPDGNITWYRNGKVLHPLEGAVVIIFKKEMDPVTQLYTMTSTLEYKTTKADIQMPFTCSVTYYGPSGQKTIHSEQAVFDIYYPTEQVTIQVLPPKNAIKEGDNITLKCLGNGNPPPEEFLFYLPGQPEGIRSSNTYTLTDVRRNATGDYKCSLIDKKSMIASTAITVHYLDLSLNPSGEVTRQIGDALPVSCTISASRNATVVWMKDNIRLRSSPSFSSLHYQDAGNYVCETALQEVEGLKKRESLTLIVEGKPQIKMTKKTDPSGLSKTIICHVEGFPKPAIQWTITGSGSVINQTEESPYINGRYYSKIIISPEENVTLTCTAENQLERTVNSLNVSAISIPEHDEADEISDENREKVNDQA
Test: ELISA, human CD166 protein coated; apparent Kd
value-type: Kd (nM)
Reply numerically in nM, unit not repeated.

Past entries and their recorded results:
{"binder": "CD166-16522.18-2001 (antibody, part only; not given: linkers and constant regions, V domains shown, not shown: small tags and cut ends) VH: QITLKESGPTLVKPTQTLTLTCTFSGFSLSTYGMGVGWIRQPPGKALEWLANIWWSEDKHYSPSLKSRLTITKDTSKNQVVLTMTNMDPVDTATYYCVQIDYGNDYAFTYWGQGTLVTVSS VL, part: LEGWCLHPACLWGAGISSGLLSGRSDNHDIVMTQSPLSLPVTPGEPASISCRSSKSLLHSNGITYLYWYLQKPGQSPQLLIYQMSNLASGVPDRFSGSGSGTDFTLKISRVEAEDVGVYYCAQNLELPYTFGQGTKLEIK", "Kd [nM]": 57.7}
{"binder": "CD166-16522.20-2001 (antibody, part only; not given: linkers and constant regions, V domains shown, not shown: small tags and cut ends) VH: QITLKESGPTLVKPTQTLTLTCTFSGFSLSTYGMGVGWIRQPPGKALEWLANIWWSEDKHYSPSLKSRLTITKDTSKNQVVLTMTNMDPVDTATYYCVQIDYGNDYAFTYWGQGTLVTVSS VL, part: LEGWCLHPLCLAGAGISSGLLSGRSDNHDIVMTQSPLSLPVTPGEPASISCRSSKSLLHSNGITYLYWYLQKPGQSPQLLIYQMSNLASGVPDRFSGSGSGTDFTLKISRVEAEDVGVYYCAQNLELPYTFGQGTKLEIK", "Kd [nM]": 700}
{"binder": "CD166-16522.19-2001 (antibody, part only; not given: linkers and constant regions, V domains shown, not shown: small tags and cut ends) VH: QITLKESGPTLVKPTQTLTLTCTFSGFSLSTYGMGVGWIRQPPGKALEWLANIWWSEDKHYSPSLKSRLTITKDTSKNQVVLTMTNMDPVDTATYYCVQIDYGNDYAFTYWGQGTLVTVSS VL, part: LEGWCLHPLCAWGAGISSGLLSGRSDNHDIVMTQSPLSLPVTPGEPASISCRSSKSLLHSNGITYLYWYLQKPGQSPQLLIYQMSNLASGVPDRFSGSGSGTDFTLKISRVEAEDVGVYYCAQNLELPYTFGQGTKLEIK", "Kd [nM]": 49.2}

// moving on: another record for Kd
IN: Which Kd value is on record for CD166-16522.21-2001 (antibody, part only; not given: linkers and constant regions, V domains shown, not shown: small tags and cut ends) VH: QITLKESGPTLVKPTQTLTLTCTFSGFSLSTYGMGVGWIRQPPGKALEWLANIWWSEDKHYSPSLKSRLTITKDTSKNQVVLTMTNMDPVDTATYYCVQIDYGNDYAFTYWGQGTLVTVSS VL, part: CLHPLCISSGLLSGRSDNHDIVMTQSPLSLPVTPGEPASISCRSSKSLLHSNGITYLYWYLQKPGQSPQLLIYQMSNLASGVPDRFSGSGSGTDFTLKISRVEAEDVGVYYCAQNLELPYTFGQGTKLEIK ?
OUT: 145
